# GI50 per record follows
- Tested on: WiDr (colon)
- RUN DESCRIPTION: Antiproliferative SBR assay (NCI protocol), WiDr
- Assay type: cell-based, human
- CONDITION DETAILS: Homo sapiens, WiDr; 48 h exposure, n = 3, mean ± SD; multidrug-resistant line
Supply the numeric figure in µM, leaving out any unit text.

1. NS(=O)(=O)c1cccc(NC(=S)N/N=C/c2ccccc2)c1 [Compound 4g]    62

Let's switch to this compound now.
Request the reported GI50 associated with NS(=O)(=O)c1ccc(NC(=S)N/N=C/c2ccccc2)cc1 [Compound 4a]
4.5

###

- TESTED SYSTEM: UniProt O43570
- Sequence (O43570 25-354): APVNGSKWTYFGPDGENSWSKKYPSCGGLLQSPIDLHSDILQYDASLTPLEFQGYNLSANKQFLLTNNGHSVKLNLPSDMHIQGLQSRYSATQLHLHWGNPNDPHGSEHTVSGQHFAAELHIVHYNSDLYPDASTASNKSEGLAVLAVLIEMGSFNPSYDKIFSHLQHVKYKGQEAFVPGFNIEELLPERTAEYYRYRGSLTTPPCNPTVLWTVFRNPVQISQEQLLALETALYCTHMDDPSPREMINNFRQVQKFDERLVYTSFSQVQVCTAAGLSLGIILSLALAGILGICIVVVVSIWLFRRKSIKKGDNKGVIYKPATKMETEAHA
EXPERIMENTAL READOUT: Ki (µM)
Supply the numeric figure in µM, leaving out any unit text.

See these solved cases before continuing.
1. NS(=O)(=O)c1ccc(CCNC(=S)N/N=C/c2ccc(Br)cc2)cc1 [Compound 4p]    0.123
2. NS(=O)(=O)c1ccc(CCNC(=S)N/N=C/c2ccccc2)cc1 [Compound 4l]    0.00912
3. NS(=O)(=O)c1ccc(CCNC(=S)N/N=C/c2ccc(Cl)cc2)cc1 [Compound 4o]    0.143
4. NNC(=S)NCCc1ccc(S(N)(=O)=O)cc1 [Compound 3c]    0.00502
5. NS(=O)(=O)c1ccc(CCNC(=S)N/N=C/c2ccc(F)cc2)cc1 [Compound 4n]    0.0485

# get_value(readout= Ki, system= UniProt O43570) for COc1ccc(/C=N/NC(=S)NCCc2ccc(S(N)(=O)=O)cc2)cc1 [Compound 4m]
0.035

# get_value(readout= Ki, system= UniProt O43570) for NS(=O)(=O)c1ccc(CCNC(=S)N/N=C/c2ccccn2)cc1 [Compound 5c]
0.0093

# get_value(readout= Ki, system= UniProt O43570) for NS(=O)(=O)c1cccc(NC(=S)N/N=C/c2ccccn2)c1 [Compound 5b]
0.0056

# get_value(readout= Ki, system= UniProt O43570) for NNC(=S)Nc1cccc(S(N)(=O)=O)c1 [Compound 3b]
0.116

###

- TESTED SYSTEM: human CA IX (Homo sapiens)
- RUN DESCRIPTION: Stopped-flow CO2 hydrase assay, CA IX
Consider the cut-off 200 nM. If the recorded Ki is strictly smaller, the label is condition met; if not, the label is condition not met.

1. NS(=O)(=O)c1ccc(CCNC(=S)N/N=C/c2ccccc2)cc1    condition met
2. NNC(=S)NCCc1ccc(S(N)(=O)=O)cc1    condition met
3. COc1ccc(/C=N/NC(=S)NCCc2ccc(S(N)(=O)=O)cc2)cc1    condition met
4. NS(=O)(=O)c1ccc(CCNC(=S)N/N=C/c2ccc(F)cc2)cc1    condition not met
5. NS(=O)(=O)c1cccc(NC(=S)N/N=C/c2ccccn2)c1    condition met
6. NS(=O)(=O)c1ccc(CCNC(=S)N/N=C/c2ccccn2)cc1    condition met

Is Ki of NS(=O)(=O)c1ccc(CCNC(=S)N/N=C/c2ccc(Cl)cc2)cc1 strictly below 200 nM?
condition not met

Is Ki of NNC(=S)Nc1cccc(S(N)(=O)=O)c1 strictly below 200 nM?
condition met

Is Ki of NS(=O)(=O)c1ccc(CCNC(=S)N/N=C/c2ccc(Br)cc2)cc1 strictly below 200 nM?
condition not met
